target: T1, human neurotensin receptor type 1 (hNTS1R), stably expressed in CHO cells (human, UniProt P30989 1-418); assay: flow cytometry on cells; equilibrium saturation binding at intact suspended CHO-hNTS1R or HT-29 cells, 96-well plates, DPBS1, 23 ± 1 °C, homogeneous; unspecific binding with 1 μM NT(8–13); details: one partner purified
T1 construct: human neurotensin receptor type 1 (hNTS1R), wild type, stably expressed in Chinese hamster ovary cells; also called CHO-hNTS1R cells; CHO-NTS1R cells; source: CHO cells stably expressing hNTS1R; intact adherent cells, intact suspended cells and membrane preparations
T1 sequence (P30989 whole entry): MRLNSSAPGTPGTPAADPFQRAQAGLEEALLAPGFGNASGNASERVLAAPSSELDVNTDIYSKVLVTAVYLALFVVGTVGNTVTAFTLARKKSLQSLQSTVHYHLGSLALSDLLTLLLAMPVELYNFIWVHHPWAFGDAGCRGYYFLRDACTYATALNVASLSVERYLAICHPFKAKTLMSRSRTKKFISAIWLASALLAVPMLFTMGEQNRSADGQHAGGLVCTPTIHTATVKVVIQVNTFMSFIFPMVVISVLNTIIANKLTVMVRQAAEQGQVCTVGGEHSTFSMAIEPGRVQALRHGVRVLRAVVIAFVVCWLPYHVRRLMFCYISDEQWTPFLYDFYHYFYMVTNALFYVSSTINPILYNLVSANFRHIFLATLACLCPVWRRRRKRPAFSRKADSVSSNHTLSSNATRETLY
attribute-measured: Kd (nM)
Numbers only, in nM.

Prompt: Find the recorded Kd belonging to XPRRPYIL (N-terminus: 5-TAMRA attached through a 3-(1H-1,2,3-triazol-4-yl)propanoyl group; position 6 (X) = 2-(piperidin-4-yl)-Gly (pipGly); Arg8 = N^ω-[(4-(N-propanoyl)aminobutyl)aminocarbonyl]Arg) [5-TAMRA-labeled, propionylated NT(6–13) derivative 13 (UR-FE051)] and report it.
Completion: 2.6
